Tested on: SK-OV-3 ovarian
method: NCI tumour cell line growth inhibition, 48 h
endpoint.name: TGI

COc1ccc2[nH]c3cc4c(=O)c5cc(OC)ccc5[nH]c4cc3c(=O)c2c1 = > 100 µM
CC(=O)N1C(C(=O)NN2CCOCC2)CSC1c1ccccc1 (stereo not drawn) = > 100 µM

Problem: Give a short answer stating reported TGI for Cc1cc(N(CCC#N)S(=O)(=O)c2ccccc2)ccc1C=Nc1cccc(C(=O)O)c1 .
Solution: > 100 µM

----------
System: SF-539 CNS
method: NCI tumour cell line growth inhibition, 48 h
endpoint.name: TGI

Known TGI results, listed for orientation:
CNC(=O)c1cc(Oc2ccc3nc(NC(=O)Nc4ccc(CN5CCOCC5)c(C(F)(F)F)c4)sc3c2)ccn1 = 3.37 µM
CCCCC(C(=O)C(=O)Nc1ccc(C)cc1C)C(=O)C(C)C (stereo not given) = > 100 µM
CCCCn1c(-c2ccccc2)cs/c1=N\N=C1C=C(C(C)(C)C)C(=O)C(C(C)(C)C)=C1 = > 100 µM
CC(=O)NNc1nc(C)c(C(=O)NNC(=O)C(=O)Nc2ccc(Cl)c([N+](=O)[O-])c2)s1 = > 100 µM

Kindly consider the entry below.
Problem: Return reported TGI. Input molecule: Oc1cc(O)c2c(c1)O[C@H](c1ccc(O)c(O)c1)[C@@H](O)C2
Solution: > 100 µM

----------
System: K-562 leukemia
method: NCI tumour cell line growth inhibition, 48 h
# TGI annotations

CC1=C(C(=O)Nc2cccc(Cl)c2)C(c2ccccc2O)C(C(=O)Nc2cccc(Cl)c2)=C(C)N1 = 53.7 µM
N#C/C(=C\c1ccc(O)c(O)c1)C(=O)NCc1ccc(C(F)(F)F)cc1 = > 83.6 µM
OCC1NC(COC2OC(CO)C(O)C(O)C2O)C(O)C(O)C1O (stereo unspecified) = > 100 µM
C1=N[C@]23C(=N[C@H](N=C2NCc2ccco2)[C@]24N=CNC2=N[C@H]3N=C4NCc2ccco2)N1 = > 100 µM

Problem: Give reported TGI value for COc1cc(/C=C/C(=O)c2cccc3ccccc23)cc(OC)c1OC
Solution: 14.1 µM

Problem: Entry COc1ccc(C=Nc2ccc(-c3nc4ccccc4s3)cc2)cc1OC needs its TGI filled in; supply it.
Solution: > 100 µM

----------
Tested on: LOX IMVI melanoma
method: NCI tumour cell line growth inhibition, 48 h
endpoint.name: TGI

Example results:
CC(C)OP(=O)(OC(C)C)C(=NCCO)NNc1ccc([N+](=O)[O-])cc1 = > 100 µM
CC(=O)OCCOCn1c2ccccc2c2c3c(c4c5ccccc5n(COCCOC(C)=O)c4c21)C(=O)N(Cc1ccccc1)C3=O = > 100 µM

Problem: Tell me its TGI given COc1ccc(C=Nc2ccc(-c3nc4ccccc4s3)cc2)cc1OC as the entry.
Solution: 45.5 µM

----------
System: CCRF-CEM leukemia
method: NCI tumour cell line growth inhibition, 48 h
# TGI values compiled below

// worked examples, TGI included
COc1ccc(C(c2ccccc2C(=O)O)c2ccc(OC)c3ccccc23)c2ccccc12 = > 100 µM
Oc1cc(O)c2c(c1)O[C@H](c1ccc(O)c(O)c1)[C@@H](O)C2 = > 100 µM

We now examine a further compound.
Problem: Please report TGI for the following compound: CC(Oc1cc2oc(=O)cc(-c3ccccc3)c2cc1Cl)C(=O)O (stereo not drawn)
Solution: > 100 µM
